experimentalSystem: Kappa-type opioid receptor (Mus musculus) (UniProt P33534)
Sequence (P33534 whole entry): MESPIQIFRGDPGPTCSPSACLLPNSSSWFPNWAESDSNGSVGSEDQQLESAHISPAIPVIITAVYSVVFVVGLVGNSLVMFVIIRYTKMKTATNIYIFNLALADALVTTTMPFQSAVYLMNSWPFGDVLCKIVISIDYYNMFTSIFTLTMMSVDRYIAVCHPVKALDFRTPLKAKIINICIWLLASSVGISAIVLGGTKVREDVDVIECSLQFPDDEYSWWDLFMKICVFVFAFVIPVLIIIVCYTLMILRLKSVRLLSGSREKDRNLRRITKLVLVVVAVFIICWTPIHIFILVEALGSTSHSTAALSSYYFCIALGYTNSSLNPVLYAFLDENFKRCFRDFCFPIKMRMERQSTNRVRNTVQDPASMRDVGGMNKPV
protocol: Antagonism of opioid analgesia using a mouse writhing model to block U-50,488 ([…]) induced kappa-opioid receptor subcutaneously
Type: functional, organism-based
// boundary case: AD50 equal to 4 mg/kg maps to Not met; strictly smaller maps to Met

Past entries and their recorded results:
> print(dat)
                                   compound  category
1  C[C@H]1CN(CCCc2ccco2)CC[C@@]1(C)c1cccc(O)c1       Met
2  C[C@H]1CN(CC(O)c2ccccc2)CC[C@@]1(C)c1cccc(O)c1 (stereo not given in full)   Not met
3  C[C@H]1CN(CCC(=O)c2ccccc2)CC[C@@]1(C)c1cccc(O)c1 (stereo in doubt; 6)   Not met
4  Cc1ccccc1CCN1CC[C@@](C)(c2cccc(O)c2)[C@@H](C)C1       Met
5  C[C@H]1CN(CCc2cccs2)CC[C@@]1(C)c1cccc(O)c1       Met
6   C[C@H]1CN(CC2CC2)CC[C@@]1(C)c1cccc(O)c1   Not met
7  C[C@H]1CN(CCc2cccc(Cl)c2)CC[C@@]1(C)c1cccc(O)c1       Met

Exercise: Just wondering, is AD50 of CC(CCCN1CC[C@@](C)(c2cccc(O)c2)[C@@H](C)C1)c1ccccc1 (stereo not given in full) below 4 mg/kg?
Key: Met

----------
experimentalSystem: Mu-type opioid receptor (Mus musculus) (UniProt P42866)
Sequence (P42866 whole entry): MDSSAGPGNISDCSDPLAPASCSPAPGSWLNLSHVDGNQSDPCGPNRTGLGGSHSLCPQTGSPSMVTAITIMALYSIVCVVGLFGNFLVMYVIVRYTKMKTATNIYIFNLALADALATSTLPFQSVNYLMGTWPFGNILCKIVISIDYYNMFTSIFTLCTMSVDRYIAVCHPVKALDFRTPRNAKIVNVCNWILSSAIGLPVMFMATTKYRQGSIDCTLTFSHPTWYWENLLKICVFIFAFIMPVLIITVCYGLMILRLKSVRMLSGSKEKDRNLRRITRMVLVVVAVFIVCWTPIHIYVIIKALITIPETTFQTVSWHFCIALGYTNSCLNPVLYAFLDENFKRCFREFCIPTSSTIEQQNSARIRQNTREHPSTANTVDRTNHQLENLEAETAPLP
protocol: Antagonism of opioid analgesia using a mouse writhing model to block morphine ([…]) induced mu-opioid receptor (subcutaneously dosed)
Assay type: functional, organism-based
reportedEndpoint: AD50 (mg/kg)
Write the value in mg/kg as a bare number.

> print(dat)
                                   compound  reportedendpoint  quantitativereadout
1  CC(CCCN1CC[C@@](C)(c2cccc(O)c2)[C@@H](C)C1)c1ccccc1 (stereo not given in full)              AD50                 0.25
2  C[C@H]1CN(CCc2cccc(F)c2)CC[C@@]1(C)c1cccc(O)c1              AD50                 0.14
3  C[C@H]1CN(CCCc2ccccc2)CC[C@@]1(C)c1cccc(O)c1              AD50                  2.4

In the following, a different compound is considered.
Exercise: For C[C@H]1CN(CCc2ccccc2)CC[C@@]1(C)c1cccc(O)c1 , what is its reported AD50?
Key: 0.16

----------
experimentalSystem: Mu-type opioid receptor (Rattus norvegicus)
Sequence (P33535 whole entry): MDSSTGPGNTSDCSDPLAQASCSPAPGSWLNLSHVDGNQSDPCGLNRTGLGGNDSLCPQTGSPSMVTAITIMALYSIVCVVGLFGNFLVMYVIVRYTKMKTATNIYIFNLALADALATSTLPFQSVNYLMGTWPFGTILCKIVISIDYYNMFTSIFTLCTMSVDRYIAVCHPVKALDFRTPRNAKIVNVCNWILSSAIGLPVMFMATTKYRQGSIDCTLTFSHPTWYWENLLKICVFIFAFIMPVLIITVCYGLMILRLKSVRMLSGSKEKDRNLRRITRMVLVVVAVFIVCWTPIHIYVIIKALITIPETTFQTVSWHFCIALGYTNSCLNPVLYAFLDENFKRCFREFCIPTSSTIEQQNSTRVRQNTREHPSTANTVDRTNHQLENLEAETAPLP
protocol: Binding affinity towards mu-opioid receptor by displacement of [3H]NAL at 100 nM from rat brain homogenates
Type: tissue-based
Quick reference for Ki among some compounds
# number then unit; no other words

Reference set, count: 8
> print(dat)
                                   compound    result
1  Cc1ccccc1CCN1CC[C@@](C)(c2cccc(O)c2)[C@@H](C)C1    0.1 µM
2  C[C@H]1CN(CCc2ccc(Cl)c(Cl)c2)CC[C@@]1(C)c1cccc(O)c1   0.09 µM
3  CC(CCCN1CC[C@@](C)(c2cccc(O)c2)[C@@H](C)C1)c1ccccc1 (stereo partly drawn)    0.1 µM
4  C[C@H]1CN(CC(O)Cc2ccccc2)CC[C@@]1(C)c1cccc(O)c1 (stereo partly drawn)    0.1 µM
5  C[C@H]1CN(CCCCc2cccs2)CC[C@@]1(C)c1cccc(O)c1  0.069 µM
6  C[C@H]1CN(Cc2ccoc2)CC[C@@]1(C)c1cccc(O)c1    0.1 µM
7  C[C@H]1CN(CCCc2cccc(Cl)c2)CC[C@@]1(C)c1cccc(O)c1    0.1 µM
8  Cc1cccc(CCN2CC[C@@](C)(c3cccc(O)c3)[C@@H](C)C2)c1    0.1 µM

Exercise: // query Ki value for entry C[C@H]1CN(CCc2ccncc2)CC[C@@]1(C)c1cccc(O)c1
Key: 0.099 µM

Exercise: Lookup C[C@H]1CN(Cc2ccccc2)CC[C@@]1(C)c1cccc(O)c1
Key: 0.089 µM

Exercise: Entry C[C@H]1CN(CC(O)c2ccccc2)CC[C@@]1(C)c1cccc(O)c1 (stereo partly drawn) please
Key: 0.097 µM

Exercise: # repeat for C[C@H]1CN(CC2CCCO2)CC[C@@]1(C)c1cccc(O)c1 (stereo partly drawn)
Key: 0.06 µM

Exercise: Field entry: Cc1ccc(CCN2CC[C@@](C)(c3cccc(O)c3)[C@@H](C)C2)cc1
Key: 0.095 µM

----------
experimentalSystem: UniProtKB P34975
Sequence (P34975 whole entry): as the sequence (P33534 whole entry) above, with D11E, S17A, S51P, A308V counted along it
protocol: Tested for the antagonism of kappa opioid receptor diuresis at a dose of 0.08 mg/kg subcutaneously
Assay type: functional, organism-based
Set-up: dose 0.08 mg/kg
Mark rule met for AD50 under 4 mg/kg, rule not met if at or over.

> print(dat)
                                   compound  category
1  C[C@H]1CN(Cc2ccccc2)CC[C@@]1(C)c1cccc(O)c1  rule met

Exercise: Lab log: compare recorded AD50 with 4 mg/kg; is it strictly lower for COc1ccccc1CCCN1CC[C@@](C)(c2cccc(O)c2)[C@@H](C)C1 ?
Key: rule met

Exercise: Queued: C[C@H]1CN(CCc2cccc3ccccc23)CC[C@@]1(C)c1cccc(O)c1
Key: rule not met

Exercise: Input CC(CCCN1CC[C@@](C)(c2cccc(O)c2)[C@@H](C)C1)c1ccccc1 (some centres undefined)
Key: rule not met

Exercise: And the next one, C[C@H]1CN(CCc2cccc(Cl)c2)CC[C@@]1(C)c1cccc(O)c1 ?
Key: rule met

Exercise: Same lookup for C[C@H]1CN(CCc2ccccc2Cl)CC[C@@]1(C)c1cccc(O)c1 , please.
Key: rule met

Exercise: Query C[C@H]1CN(C)CC[C@@]1(C)c1cccc(O)c1 next
Key: rule not met

Exercise: Follow-up item: C[C@H]1CN(CC2CCCO2)CC[C@@]1(C)c1cccc(O)c1 (some centres undefined)
Key: rule met

Exercise: # iterate: Cc1ccc(CCN2CC[C@@](C)(c3cccc(O)c3)[C@@H](C)C2)cc1
Key: rule not met

----------
experimentalSystem: Mu-type opioid receptor (Mus musculus)
protocol: Antagonism of opioid analgesia using a mouse writhing model to block morphine ([…]) induced mu-opioid receptor (subcutaneously dosed)
Type: functional, organism-based
reportedEndpoint: AD50 (mg/kg)
Unit mg/kg implied. Number only.

# count of solved cases: 3
> print(dat)
                                   compound  quantitativereadout
1  C[C@H]1CN(CCCc2cccs2)CC[C@@]1(C)c1cccc(O)c1 (stereo in doubt; 42)                 0.03
2  C[C@H]1CN(CCc2cccc(Cl)c2)CC[C@@]1(C)c1cccc(O)c1                 0.44
3  Cc1ccccc1CCN1CC[C@@](C)(c2cccc(O)c2)[C@@H](C)C1                 0.19

// next entry
Exercise: Param readout= AD50; system= Mu-type opioid receptor (Mus musculus); entry= C[C@H]1CN(CCCc2cccc(Cl)c2)CC[C@@]1(C)c1cccc(O)c1 ; returns value.
Key: 0.76

----------
experimentalSystem: Mu-type opioid receptor (Mus musculus) (UniProt P42866)
protocol: Antagonism of opioid analgesia using a mouse writhing model to block morphine ([…]) induced mu-opioid receptor (subcutaneously dosed)
Assay type: functional, organism-based
Known log10 AD50 of a selection of compounds
Reminder: these figures are log10 of reported AD50, in mg/kg before transformation.

> print(dat)
                                   compound  quantitativereadout
1  C[C@H]1CN(CCCc2ccco2)CC[C@@]1(C)c1cccc(O)c1                -1.10
2  C[C@H]1CN(CCCCc2ccccc2)CC[C@@]1(C)c1cccc(O)c1                -0.55
3  C[C@H]1CN(CC(O)Cc2ccccc2)CC[C@@]1(C)c1cccc(O)c1 (stereo partly specified)                -0.57
4  C[C@H]1CN(CCCCc2cccs2)CC[C@@]1(C)c1cccc(O)c1                -0.80
5  Cc1cccc(CCN2CC[C@@](C)(c3cccc(O)c3)[C@@H](C)C2)c1                -0.57

Exercise: GET /values?readout=log10 AD50&item= C[C@H]1CN(Cc2ccco2)CC[C@@]1(C)c1cccc(O)c1
Key: -0.15

----------
experimentalSystem: Kappa-type opioid receptor (Mus musculus) (UniProt P33534)
protocol: Antagonism of opioid analgesia using a mouse writhing model to block U-50,488 ([…]) induced kappa-opioid receptor subcutaneously
Type: functional, organism-based
reportedEndpoint: AD50 (mg/kg)
Respond with the bare value in mg/kg.

Below, 4 compounds whose answers are already recorded.
> print(dat)
                                smilesentry  reportedendpoint  quantitativereadout
1  C[C@H]1CN(CCCCc2cccs2)CC[C@@]1(C)c1cccc(O)c1              AD50                 0.43
2  C[C@H]1CN(CCc2cccc(F)c2)CC[C@@]1(C)c1cccc(O)c1              AD50                 0.84
3  CCCCCCN1CC[C@@](C)(c2cccc(O)c2)[C@@H](C)C1              AD50                 0.11
4  Cc1ccccc1CCCN1CC[C@@](C)(c2cccc(O)c2)[C@@H](C)C1              AD50                 0.09

Exercise: Can you share its AD50? I mean this compound: C[C@H]1CN(CCc2ccccc2Cl)CC[C@@]1(C)c1cccc(O)c1
Key: 0.51

Exercise: Next entry: C[C@H]1CN(CCc2ccccc2)CC[C@@]1(C)c1cccc(O)c1
Key: 1.4

Exercise: Now this one: C[C@H]1CN(CCc2cccc3ccccc23)CC[C@@]1(C)c1cccc(O)c1
Key: 0.51
